- Assayed System: T1, Proliferating cell nuclear antigen S228I variant (human, UniProt P12004 1-261, S228I)
- T1 construct: PCNA, human, patient-derived variant p.Ser228Ile; expressed from the pET3c vector; Disease-associated natural allele (PARD); also called PCNA-S228I; source: E. coli BLR-DE3, purified (S and Q HiTrap columns, Sephacryl-200 gel filtration)
- T1 sequence (P12004 whole entry S228I): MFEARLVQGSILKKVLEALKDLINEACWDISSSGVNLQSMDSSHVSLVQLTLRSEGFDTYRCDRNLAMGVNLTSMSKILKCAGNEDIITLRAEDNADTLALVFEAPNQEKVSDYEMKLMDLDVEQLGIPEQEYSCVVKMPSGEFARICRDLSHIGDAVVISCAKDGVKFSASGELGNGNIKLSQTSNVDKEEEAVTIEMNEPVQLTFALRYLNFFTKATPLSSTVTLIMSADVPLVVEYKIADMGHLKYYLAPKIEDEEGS
- Test Summary: ITC; peptide (FEN1 800 uM, pol δ p66 550 uM, RNaseH2B 750 uM) with 33 to 38 uM individual PCNA (not trimeric rings); 25 °C
- Condition Summary: both partners purified
Endpoint: Kd (µM)

Binder	Endpoint	Unit String	Measured
KANRQVSITGFFQRK (PIP-box peptide of the p66 subunit of DNA polymerase delta; also called pol δ p66; pol δ; source: synthetic peptide (21st Century Biochemicals)) [DNA polymerase delta p66 PIP-box peptide]	Kd	µM	4

Reference source: paper PMC10165274
